These entries and their values trace back to the supplement of paper PMC7877785.

Overview of reported self-splicing fitness (ln) across a group of sequences:
assay: self-splicing fitness, log relative to wild type (ln ratio); higher = more splicing; Tetrahymena group I intron in knt gene, E. coli kanamycin selection, DiMSum; sequences stand for … in CUCUCU…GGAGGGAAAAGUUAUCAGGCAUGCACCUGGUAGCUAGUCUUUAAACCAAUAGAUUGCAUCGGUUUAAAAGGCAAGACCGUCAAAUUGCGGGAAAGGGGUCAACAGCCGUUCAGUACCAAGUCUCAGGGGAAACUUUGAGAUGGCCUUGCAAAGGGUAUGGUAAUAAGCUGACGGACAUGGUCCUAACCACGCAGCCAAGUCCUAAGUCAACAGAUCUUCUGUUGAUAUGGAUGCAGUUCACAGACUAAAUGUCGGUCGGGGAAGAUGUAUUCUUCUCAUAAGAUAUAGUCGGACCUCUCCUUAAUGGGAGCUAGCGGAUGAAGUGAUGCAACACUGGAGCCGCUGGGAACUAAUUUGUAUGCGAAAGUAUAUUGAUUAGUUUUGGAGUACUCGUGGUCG; settings: 37 °C;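 note: selection with 25 µg/mL kanamycin versus none on LB agar overnight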
Hey, just send me the number, nothing else.

Guide cases for self-splicing fitness (ln), answers given:
- Construct sequence: "UGUCAGCAAUAUUACGAAAC"
  self-splicing fitness (ln): -0.978
- Construct sequence: "UGCUAGCAAUAUUACGGAAA"
  self-splicing fitness (ln): -2.19

q: Need self-splicing fitness (ln), item UGCCAGCAAUAUUACGCCGG
a: -3.05

q: Look up self-splicing fitness (ln) for this sequence: CGUUAGCAAUAUUACGCUGU
a: -2.71

q: Fill in the blank: the reported self-splicing fitness (ln) of CGUCAGCAAUAUUACGGGAG is ____.
a: -0.946

q: Value lookup for self-splicing fitness (ln); key = CAGGAGCAAUAUUACGCAGC
a: -2.55

* * *

assay: self-splicing fitness, log relative to wild type (ln ratio); higher = more splicing; Tetrahymena group I intron in knt gene, E. coli kanamycin selection, DiMSum; sequences stand for … in CUCUCU…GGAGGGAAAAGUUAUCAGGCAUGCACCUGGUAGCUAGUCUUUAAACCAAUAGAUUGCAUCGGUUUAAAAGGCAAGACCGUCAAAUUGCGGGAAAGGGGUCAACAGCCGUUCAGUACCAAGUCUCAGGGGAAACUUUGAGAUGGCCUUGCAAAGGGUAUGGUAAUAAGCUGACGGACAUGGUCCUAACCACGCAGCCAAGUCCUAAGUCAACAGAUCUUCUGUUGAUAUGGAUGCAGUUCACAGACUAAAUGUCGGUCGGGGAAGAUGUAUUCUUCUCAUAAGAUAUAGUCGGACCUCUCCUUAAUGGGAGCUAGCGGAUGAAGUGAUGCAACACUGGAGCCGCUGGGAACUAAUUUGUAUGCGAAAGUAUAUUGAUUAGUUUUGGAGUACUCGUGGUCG; settings: 37 °C
Measured endpoint: self-splicing fitness (ln)
Lab note: jot the number down without any unit.

Use the examples below as a reference point.
- Construct sequence: "UCCAAGCAAUAUUACGUCGA"
  self-splicing fitness (ln): 0.376
- Construct sequence: "AGAAAGCAAUAUUACGUCGG"
  self-splicing fitness (ln): -1.04

q: Using the record for ACAUAGCAAUAUUACGCUAU , report its self-splicing fitness (ln).
a: -2.38

q: For UCGCAGCAAUAUUACGGACA , what is its reported self-splicing fitness (ln)?
a: -1.83

q: Data request, read-out self-splicing fitness (ln), for CGAUAGCAAUAUUACGAAAG
a: -0.699

q: Please give the measured self-splicing fitness (ln) for this sequence: CUACAGCAAUAUUACGCUCU
a: -2.74

q: What value of measured self-splicing fitness (ln) is listed for CAUUAGCAAUAUUACGUUCA ?
a: -2.35

q: Request the reported self-splicing fitness (ln) associated with UCGAAGCAAUAUUACGGCUA
a: -1.41

q: Name the recorded self-splicing fitness (ln) for AUGUAGCAAUAUUACGCCGU .
a: -0.29

q: Fill in: self-splicing fitness (ln) of CAGAAGCAAUAUUACGUCGU is ___
a: -1.3

q: Can you look up the measured self-splicing fitness (ln) of UCUAAGCAAUAUUACGUUCU for me?
a: -1.47

* * *

assay: self-splicing fitness, log relative to wild type (ln ratio); higher = more splicing; Tetrahymena group I intron in knt gene, E. coli kanamycin selection, DiMSum; sequences stand for … in CUCUCU…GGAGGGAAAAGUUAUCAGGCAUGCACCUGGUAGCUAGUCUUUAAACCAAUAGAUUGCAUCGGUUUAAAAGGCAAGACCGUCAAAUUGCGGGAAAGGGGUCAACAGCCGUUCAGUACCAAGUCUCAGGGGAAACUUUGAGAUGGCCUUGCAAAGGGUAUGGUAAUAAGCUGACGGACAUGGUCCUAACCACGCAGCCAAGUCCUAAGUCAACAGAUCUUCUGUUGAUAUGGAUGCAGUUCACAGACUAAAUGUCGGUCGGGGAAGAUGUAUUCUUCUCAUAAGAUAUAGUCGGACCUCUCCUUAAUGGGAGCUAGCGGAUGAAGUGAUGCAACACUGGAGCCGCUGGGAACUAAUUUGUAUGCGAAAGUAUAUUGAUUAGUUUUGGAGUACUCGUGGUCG; settings: 37 °C
Collected self-splicing fitness (ln) values appear next to each entry.

Solved entries:
- Construct sequence: "AAACAGCAAUAUUACGCUGG"
  Measured endpoint: "self-splicing fitness (ln)"
  Measured: -2.62
- Construct sequence: "GGUGAGCAAUAUUACGUCGA"
  Measured endpoint: "self-splicing fitness (ln)"
  Measured: -2.42
- Construct sequence: "UCAUAGCAAUAUUACGGGCC"
  Measured endpoint: "self-splicing fitness (ln)"
  Measured: -3.67
- Construct sequence: "CUCAAGCAAUAUUACGGGAC"
  Measured endpoint: "self-splicing fitness (ln)"
  Measured: -2.14

q: Request the reported self-splicing fitness (ln) associated with GGAUAGCAAUAUUACGCGGA
a: -1.57

q: What does the data say about its self-splicing fitness (ln)? Entry: CGUUAGCAAUAUUACGUAUC
a: -2.15

* * *

Catalogue of sequences with associated self-splicing fitness (ln)
assay: self-splicing fitness, log relative to wild type (ln ratio); higher = more splicing; Tetrahymena group I intron in knt gene, E. coli kanamycin selection, DiMSum; sequences stand for … in CUCUCU…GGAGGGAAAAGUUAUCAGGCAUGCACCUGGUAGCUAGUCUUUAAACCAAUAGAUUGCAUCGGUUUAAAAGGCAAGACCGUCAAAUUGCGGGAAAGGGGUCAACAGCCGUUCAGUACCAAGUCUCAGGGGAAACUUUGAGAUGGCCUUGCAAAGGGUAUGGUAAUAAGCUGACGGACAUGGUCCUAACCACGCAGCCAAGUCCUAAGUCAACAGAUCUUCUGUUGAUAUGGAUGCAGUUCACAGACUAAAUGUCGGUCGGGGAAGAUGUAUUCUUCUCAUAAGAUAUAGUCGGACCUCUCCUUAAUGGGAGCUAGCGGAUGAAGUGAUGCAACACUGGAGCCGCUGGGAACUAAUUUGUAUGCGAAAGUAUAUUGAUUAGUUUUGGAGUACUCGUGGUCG; details: 37 °C
Answer with a number only.

q: Report self-splicing fitness (ln) for CUCGAGCAAUAUUACGAUAA please.
a: -2.02

q: Which self-splicing fitness (ln) value belongs to AAGCAGCAAUAUUACGGUUC ?
a: -2.02

q: Quick check: self-splicing fitness (ln) of AUCAAGCAAUAUUACGGUUC ?
a: -2.01

* * *

test: self-splicing fitness, log relative to wild type (ln ratio); higher = more splicing; Tetrahymena group I intron in knt gene, E. coli kanamycin selection, DiMSum; sequences stand for … in CUCUCU…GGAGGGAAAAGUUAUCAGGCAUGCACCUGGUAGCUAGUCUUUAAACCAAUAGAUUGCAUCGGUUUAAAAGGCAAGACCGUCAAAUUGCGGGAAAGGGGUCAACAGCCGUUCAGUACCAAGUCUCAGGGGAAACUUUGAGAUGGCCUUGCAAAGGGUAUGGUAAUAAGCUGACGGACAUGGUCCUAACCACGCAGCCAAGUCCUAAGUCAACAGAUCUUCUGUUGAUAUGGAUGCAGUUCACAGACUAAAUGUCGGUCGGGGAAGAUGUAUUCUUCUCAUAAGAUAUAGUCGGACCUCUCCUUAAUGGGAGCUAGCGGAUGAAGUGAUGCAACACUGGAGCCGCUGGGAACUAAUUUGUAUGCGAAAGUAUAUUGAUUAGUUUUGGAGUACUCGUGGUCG; conditions: 30 °C
Listing of recorded self-splicing fitness (ln) by entry.
Format: numeric value only, no unit, no commentary.

- Construct sequence: "CCGCAGCAAUAUUACGAUCG"
  self-splicing fitness (ln): 0.289
- Construct sequence: "GUGUAGCAAUAUUACGCUGG"
  self-splicing fitness (ln): -3.59
- Construct sequence: "ACUAAGCAAUAUUACGUGUG"
  self-splicing fitness (ln): -2.18
- Construct sequence: "UGCGAGCAAUAUUACGACUC"
  self-splicing fitness (ln): -2.71

q: Look up self-splicing fitness (ln): AGUCAGCAAUAUUACGUGAU
a: -1.52

q: Which self-splicing fitness (ln) is listed for GCGAAGCAAUAUUACGAAUA ?
a: -2.34

q: Value lookup for self-splicing fitness (ln); key = GAAUAGCAAUAUUACGGAAC
a: -2.37

q: Entry UCGUAGCAAUAUUACGGCAA : reported self-splicing fitness (ln) = ?
a: -2.52

q: What measured self-splicing fitness (ln) goes with ACAAAGCAAUAUUACGUCGG ?
a: -2.14

q: Returns the measured self-splicing fitness (ln) for the input sequence. Input: CAACAGCAAUAUUACGCCUG
a: -1.23

q: Using the record for UACAAGCAAUAUUACGAGCU , report its self-splicing fitness (ln).
a: -3.19

q: If you can, please state the reported self-splicing fitness (ln) value of AACAAGCAAUAUUACGAGCU .
a: -0.919

q: Quick one: self-splicing fitness (ln) of UGUCAGCAAUAUUACGAGGG ?
a: -3.72

q: Quick one: self-splicing fitness (ln) of GACCAGCAAUAUUACGACGU ?
a: -0.417
